Provenance of the data: paper PMC12800425

- system.under.test: PA0932 (PaCysM, cysteine synthase B) (Pseudomonas aeruginosa, UniProt Q9I526)
- Construct: gene cysM; recombinant, N-terminal His-tag with TEV cleavage site; homodimer
- Sequence (Q9I526 1-299): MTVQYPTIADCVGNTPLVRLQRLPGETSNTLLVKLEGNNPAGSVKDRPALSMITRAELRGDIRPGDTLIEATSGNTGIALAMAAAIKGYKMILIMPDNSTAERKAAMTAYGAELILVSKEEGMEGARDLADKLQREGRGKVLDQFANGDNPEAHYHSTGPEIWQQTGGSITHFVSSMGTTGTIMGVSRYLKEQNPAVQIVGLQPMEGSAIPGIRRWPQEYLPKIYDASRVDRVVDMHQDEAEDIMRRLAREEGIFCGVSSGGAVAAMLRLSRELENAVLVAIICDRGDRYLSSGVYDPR
- test: ninhydrin steady-state kinetics, global fit (Km […]); substrate inhibition Ki
- Assay type: biochemical
reported.metric: Ki (µM)
Answers are plain numbers, in µM.

Provide measured Ki value, entry: O=S(O)(O)=S [thiosulfate]
970
